Quantity measured: melting point

Worked examples follow.
N#CC(C#N)=Cc1c2ccccc2c(Cl)c2ccccc12 [Compound 23b] :: 196 to 198 °C
O=C(c1c2ccccc2cc2ccccc12)N1CCCCC1 [Compound 33f] :: 181 to 183 °C
Cc1[nH]nnc1-c1c2ccccc2cc2ccccc12 [Compound 30b] :: 231 to 232 °C
O=C(c1c2ccccc2cc2ccccc12)N1CCCCCC1 [Compound 33c, Anthracen-9-yl(Azepan-1-yl)Methanone] :: 134 to 137 °C
O=[N+]([O-])/C=C/c1c2ccccc2c(Br)c2ccccc12 [Compound 19h, (E)-9-Bromo-10-(2-Nitrovinyl)Anthracene] :: 227 to 230 °C
O=[N+]([O-])CCc1c2ccccc2cc2ccccc12 :: 147 to 149 °C
c1ccc2c(C3CNN=N3)c3ccccc3cc2c1 (stereo not drawn) :: 266 to 268 °C
CN(C)C(=O)c1c2ccccc2cc2ccccc12 [Compound 33b] :: 150 to 152 °C

Query: Fill in reported melting point for this entry: O=C(c1c2ccccc2cc2ccccc12)N1CCCC1 [Compound 33d]
Reply: 149 to 151 °C
